These measurements were taken from ChEMBL document CHEMBL1144512.

# Tested on: Trypanosoma cruzi
# procedureSummary: Trypanocidal activity against Trypanosoma cruzi Y blood stream trypomastigotes assessed as parasite lysis at 0.63 mM relative to control
# Type: functional
parameter: Activity (%)
Dear colleague, please return just the value in %, with no unit written.

If you can, please state the reported Activity value of C=C1C[C@@]23CCC4[C@@](C)(CCC[C@@]4(C)C(=O)OC)C2CC[C@@H]1C3 (some centres undefined) .
48

If you can, please state the reported Activity value of CN(C)c1ccc(C(=C2C=CC(=[N+](C)C)C=C2)c2ccc(N(C)C)cc2)cc1.[Cl-] [GENTIAN VIOLET] .
100

If you can, please state the reported Activity value of C=C1C[C@@]23CC[C@H]4[C@@](C)(CCC[C@@]4(C)C(=O)O)[C@@H]2CC[C@@H]1C3 [KAURENOIC ACID] .
90

If you can, please state the reported Activity value of COC(=O)[C@]1(C)CCC[C@@]2(C)C3CC[C@@H]4C[C@@]3(CCC21)C[C@@H]4CO (some centres undefined) .
94
